experiment: folding stability dG unfold (combined trypsin and chymotrypsin); higher = more stable
Label scheme for folding stability dG unfold: lower than 10 kJ/mol is No, 10 kJ/mol and above is Yes.

Challenge: Check the entry SAGGTIIINFTWSDIKDILDYLKDNKDWKITIWMGNKPVEYPLDDLEEILQNIPMPPGQPFWIEITPSAGGS [r16_377_TrROS] : does folding stability dG unfold equal or exceed 10 kJ/mol?
Response given: Yes

Challenge: Please answer likewise for MNIKVTSVLPDGTVVVTAEAPLPDGSSIRVTAARRGKDSYVLVTVNVYPTKVVADIKEVAPVSPGSPEEGGS [r1_53_TrMRF]
Response given: Yes

Challenge: Please answer likewise for SAGGSALADRIKEIARENGFEPESVQFDPGNGHLMISIEPPDGRGVVVQIDIDNNNLKIQIQPLDDSAGGSA [r15_561_TrROS]
Response given: No

Challenge: Please answer likewise for SAGGSAGGSPYKEVPVPVRIHSPDGETHEFPGTIWKSPDDGMLEIRFPGNGKKHKIPLNDIQISAGGSAGGS [r12_772_TrROS]
Response given: No

Challenge: Please answer likewise for SAGGSAGGSAGEKVIRFPFKSPEEIREHIKNGRPIRFPNGKPVKITKIQPYPNGWLWITVSAGGSAGGSAGG [r11_48_TrROS]
Response given: No

Challenge: Please answer likewise for SAGGKVKIIVFNKKTGEKIEIDLSKLKPGDIIKLPNGYYKIIDKKTKKIKVIKAKSIEELKKAIKKLSSAGG [r13_962_TrROS_Hall]
Response given: No

Challenge: Please answer likewise for SAGGSAGGKLENLPENVTEVRIEKNENGEYTIYVRNKETNEYVKLKVEKKDGEWKIVEKEVFPKSAGGSAGG [r6_937_TrROS_Hall]
Response given: Yes

Challenge: Please answer likewise for SAGKMTIEIVVEVKPGMTEEELKEKLEELVKKLKEEFPELKNLEIKIVEVKVERLEDGTLRVTVKIEVKSAG [r5_985_TrROS_Hall]
Response given: Yes

Challenge: Please answer likewise for SAGGSAMFVVVEVESPEELRELVEEEDPSVFLLPTEDGEERLVVVDPENPENIRVIPLERPELLAPSAGGSA [r15_11_TrMRF]
Response given: No

Challenge: Please answer likewise for SAGGSAGGSASSVPARLPDATVLEVTTDPATGLQTALLRFPDGSEVVVTHYPDGSVEVRPLSAGGSAGGSAG [r3_348_JUSTAS]
Response given: Yes

Challenge: Please answer likewise for SAGGKYKIEIVDVEVKEDGTVTIKLKLYNENGELIAEIEIELKGVKEVTLELEIGGKKIKITLKVEKPSAGG [r13_427_TrROS_Hall]
Response given: Yes

Challenge: Please answer likewise for SAGGSAGGSVEDVVKKENVEKAEVKPEPNPPVTLTKITSKNPNSNTTLTGTLVVVDPKNGLLLSAGGSAGGS [r12_133_JUSTAS]
Response given: No

Challenge: Please answer likewise for SAGEKEYVNLPLVVKLPPGVPASLILDAAVKHGAKEVTIVEEPTPDGGMVLHINLVLPKEALPKLLESLSAG [r5_376_TrMRF]
Response given: Yes

Challenge: Please answer likewise for SAALAELLLNEGYEVRIEVEVREVRPRTLPGGGTTVELDITVRIELRPPPIPPPPLDPRLLRDEDGHLRSAG [r14_569_TrMRF]
Response given: No

Challenge: Please answer likewise for SAGGSAGGSKVFTVEELENMTPEEIRALIKKSKKPVIIVAKSEEEKKRAAELLKELGVEVKVLSAGGSAGGS [r12_97_TrROS_Hall]
Response given: Yes
